- Test system: P388 leukemia ip, CD2F1 mice, survival T/C
- Experimental details: NCI In Vivo Anticancer Drug Screen. Data for tumor model P388 Leukemia (intraperitoneal) in CD2F1 (CDF1) mice
- Experimental conditions: endpoint: median survival time; dose: 50.0 mg/kg/injection; schedule: Q04DX003 (ip); vehicle: Klucel (hydroxypropylcellulose) (HPC); higher = longer survival
Inconclusive results and toxic doses are left out.
Property label: T/C

INSERT INTO results (compound, system_tested, measurement) VALUES
  ('CC1=CC(=O)C=CC1=Nc1ccc(N(CCCl)CCCl)cc1', 'P388 leukemia ip, CD2F1 mice, survival T/C', '103 % of control'),
  ('Cn1c(C(Cl)Cl)nc2ccccc2c1=O', 'P388 leukemia ip, CD2F1 mice, survival T/C', '104 % of control'),
  ('NC(N)=Nc1nc2ccccc2o1', 'P388 leukemia ip, CD2F1 mice, survival T/C', '90 % of control'),
  ('CC1(C)C(C(=O)/C=C/c2ccccc2)C1[N+](=O)[O-] (stereo unspecified)', 'P388 leukemia ip, CD2F1 mice, survival T/C', '96 % of control'),
  ('CC=C=CCN(C)Cc1ccccc1', 'P388 leukemia ip, CD2F1 mice, survival T/C', '108 % of control'),
  ('O=C(Nc1ccc(C2=NCCCN2)cc1)c1ccc(C(=O)Nc2ccc(C3=NCCCN3)cc2)cc1', 'P388 leukemia ip, CD2F1 mice, survival T/C', '91 % of control');

----------
T/C for assorted molecules
- Tested on: P388 leukemia ip, CD2F1 mice, survival T/C
- Experimental details: NCI In Vivo Anticancer Drug Screen. Data for tumor model P388 Leukemia (intraperitoneal) in CD2F1 (CDF1) mice
- Experimental conditions: endpoint: median survival time; dose: 50.0 mg/kg/injection; schedule: Q01DX009 (ip); vehicle: Klucel (hydroxypropylcellulose) (HPC); higher = longer survival
Inconclusive results and toxic doses are left out.
Property label: T/C

INSERT INTO measurements (molecule, system_tested, measurement) VALUES
  ('CC1c2ccccc2OS(=O)N1C (stereo unspecified)', 'P388 leukemia ip, CD2F1 mice, survival T/C', '104 % of control'),
  ('CCOC(=O)/C=C1/SC(N2CCCCC2)C(=O)N1CC (stereo unspecified)', 'P388 leukemia ip, CD2F1 mice, survival T/C', '106 % of control'),
  ('CCC(O)(c1ccccc1)C(O)c1ccccc1 (stereo unspecified)', 'P388 leukemia ip, CD2F1 mice, survival T/C', '98 % of control'),
  ('COc1ccccc1N1CCN(CCCNc2cc(=O)n(C)c(=O)n2C)CC1', 'P388 leukemia ip, CD2F1 mice, survival T/C', '98 % of control'),
  ('CN(Cc1ccccc1)CC(CCC1OCCO1)(CCC1OCCO1)c1ccccc1', 'P388 leukemia ip, CD2F1 mice, survival T/C', '96 % of control'),
  ('Clc1ccc(CN2Cc3ccc4cccnc4c3OC2c2ccccn2)cc1Cl (stereo unspecified)', 'P388 leukemia ip, CD2F1 mice, survival T/C', '100 % of control');

----------
- System: P388 leukemia ip, CD2F1 mice, survival T/C
- Experimental details: NCI In Vivo Anticancer Drug Screen. Data for tumor model P388 Leukemia (intraperitoneal) in CD2F1 (CDF1) mice
- Experimental conditions: endpoint: median survival time; dose: 200.0 mg/kg/injection; schedule: Q04DX002 (ip); vehicle: saline; higher = longer survival
Toxic doses and inconclusive results are not listed.
T/C for assorted compounds
Property label: T/C

INSERT INTO measurements (compound, measurement) VALUES
  ('N#CC1=NOC(C(N)C(=O)O)C1 (configuration not stated)', '98 % of control'),
  ('O=C1CCCC2OC12 (configuration not stated)', '112 % of control'),
  ('O=C1c2ccccc2C(=O)N1c1ccc(Cl)cc1[N+](=O)[O-]', '99 % of control'),
  ('O=C(CCl)n1ccc(=O)n(C(=O)CCl)c1=O', '100 % of control'),
  ('Cc1ccc(S(=O)(=O)ONNc2nccc3ccccc23)cc1', '96 % of control'),
  ('COc1ccc(C(=O)C(Br)CS(=O)(=O)c2ccc(C)cc2)cc1 (configuration not stated)', '102 % of control'),
  ('COc1cc2c(cc1OC)C(C)P(C)(=O)CC2O (configuration not stated)', '98 % of control');

----------
- Tested on: P388 leukemia ip, CD2F1 mice, survival T/C
- Experimental details: NCI In Vivo Anticancer Drug Screen. Data for tumor model P388 Leukemia (intraperitoneal) in CD2F1 (CDF1) mice
- Experimental conditions: endpoint: median survival time; dose: 50.0 mg/kg/injection; schedule: Q01DX005 (ip); vehicle: saline with Tween-80; higher = longer survival
Inconclusive results and toxic doses are left out.
Property label: T/C

INSERT INTO measurements (molecule, system_tested, property_label, measurement) VALUES
  ('c1ccc(-c2cnc3nc4[nH]c5ccccc5c4nn23)cc1', 'P388 leukemia ip, CD2F1 mice, survival T/C', 'T/C', '98 % of control'),
  ('Cc1nn(-c2ccccc2)c2c1S(=O)(=O)c1ccccc1-2', 'P388 leukemia ip, CD2F1 mice, survival T/C', 'T/C', '91 % of control'),
  ('CN1[C@H]2C=CC(=O)[C@]1(Cl)[C@H]1C(=O)N(c3ccccc3)C(=O)[C@@H]21', 'P388 leukemia ip, CD2F1 mice, survival T/C', 'T/C', '109 % of control'),
  ('CN1C(=O)c2ccccc2N=CN1C(=O)Nc1ccccc1', 'P388 leukemia ip, CD2F1 mice, survival T/C', 'T/C', '94 % of control'),
  ('CSc1nc(Cl)c(Br)c(N2CC2)n1', 'P388 leukemia ip, CD2F1 mice, survival T/C', 'T/C', '100 % of control'),
  ('Cc1ccc(S(=O)(=O)NN=C2[C@H]3CC=CC[C@H]3C(=NNS(=O)(=O)c3ccc(C)cc3)[C@@H]3CC=CC[C@H]23)cc1', 'P388 leukemia ip, CD2F1 mice, survival T/C', 'T/C', '90 % of control'),
  ('NC(=O)c1[nH]c(=O)[nH]c(=O)c1CSc1ccc(Cl)cc1', 'P388 leukemia ip, CD2F1 mice, survival T/C', 'T/C', '109 % of control'),
  ('CNC(=O)OCc1c(COC(=O)NC)c2n(c1-c1ccc(Cl)c(Cl)c1)CCS2(=O)=O', 'P388 leukemia ip, CD2F1 mice, survival T/C', 'T/C', '92 % of control'),
  ('CC12CCc3ccccc3C1=Nc1ccccc12 (configuration not stated)', 'P388 leukemia ip, CD2F1 mice, survival T/C', 'T/C', '103 % of control'),
  ('N#CC1Oc2ccccc2N1C(=O)c1ccccc1 (configuration not stated)', 'P388 leukemia ip, CD2F1 mice, survival T/C', 'T/C', '101 % of control'),
  ('Nc1nnc(Cc2nnc(N)o2)o1', 'P388 leukemia ip, CD2F1 mice, survival T/C', 'T/C', '101 % of control'),
  ('CCC1(O)C[C@@]2(CCCCC2I)OC1=O (some centres not stated)', 'P388 leukemia ip, CD2F1 mice, survival T/C', 'T/C', '100 % of control'),
  ('Nc1ccc2c(C(F)(F)F)cc(=O)oc2c1', 'P388 leukemia ip, CD2F1 mice, survival T/C', 'T/C', '106 % of control'),
  ('C=CC1=C(C)C2=NC1=CC1=NC(=CC3=C(C)C4=C(O)C(C(=O)OC)C(=C5NC(=C2)C(C)C5CCC(=O)OC/C=C(\C)CCCC(C)CCCC(C)CCCC(C)C)C4=N3)C(CC)=C1C (configuration not stated)', 'P388 leukemia ip, CD2F1 mice, survival T/C', 'T/C', '90 % of control'),
  ('O=C(O)c1ccccc1NCc1ccco1', 'P388 leukemia ip, CD2F1 mice, survival T/C', 'T/C', '91 % of control'),
  ('Cc1nn(C(=S)S)c(C)c1N=Nc1cc(Cl)ccc1Cl', 'P388 leukemia ip, CD2F1 mice, survival T/C', 'T/C', '100 % of control'),
  ('O=C(CCCCCCCC(=O)Nc1ccc2c(=O)c3ccccc3[nH]c2c1)Nc1ccc2c(=O)c3ccccc3[nH]c2c1', 'P388 leukemia ip, CD2F1 mice, survival T/C', 'T/C', '103 % of control'),
  ('Brc1ccc(Nc2nnc3nc(-c4ccccc4)c(-c4ccccc4)nn23)cc1', 'P388 leukemia ip, CD2F1 mice, survival T/C', 'T/C', '89 % of control'),
  ('Cc1ccc(NC(=O)CC(=O)CC(C)C)cc1C', 'P388 leukemia ip, CD2F1 mice, survival T/C', 'T/C', '107 % of control'),
  ('CC(=O)NC1=NN(C(C)=O)C(C)(c2ccccc2)S1=O (configuration not stated)', 'P388 leukemia ip, CD2F1 mice, survival T/C', 'T/C', '103 % of control'),
  ('CC1(C)COC(c2c(F)cccc2Cl)=N1', 'P388 leukemia ip, CD2F1 mice, survival T/C', 'T/C', '100 % of control'),
  ('O=C1C=C(c2ccccc2)S(=O)(=O)c2cc(O)ccc21', 'P388 leukemia ip, CD2F1 mice, survival T/C', 'T/C', '119 % of control');
